- method: Natriuretic polypeptide receptor (hNpr1) antagonism - Pilot counterscreen GloSensor control cell line (AID 1347045)
- testSettings: HEK293 cGMP GloSensor cells, SNP-stimulated luminescence, 20 min; series mostly up to 38.3 µM
Results filed as inconclusive are left out. Calls of active or inactive are those of the source. Calls follow the shape of the full dose curve.
Tick one outcome: True for active, False for inactive

Please review the following examples before continuing.
{"columns": ["compound", "labelValue"],
 "data": [
  ["NCC1OC(O[C@H]2[C@H](O)[C@@H](OC3C(O)C(N)CC(N)C3OC3OC(CO)C(O)C(O)C3N)O[C@@H]2CO)C(N)C(O)C1O (stereo partly specified)", "False"],
  ["CN1CC(=O)N/C1=N/C(=O)Nc1cccc(Cl)c1", "False"],
  ["NCCNC(=O)c1ncsc1-c1cccc(F)c1", "False"]
]}

Turning now to a further record.
Input: Record lookup: outcome of this test for "O=C1NC(=O)/C(=C/c2ccc3nccnc3c2)S1" ?
Output: False

###

- method: qHTS of pediatric cancer cell lines to identify multiple opportunities for drug repurposing: Primary screen for A673 cells (AID 1347092); also: nearly all actives have a fitted effect of over 45% in size
- testSettings: A673 Ewing sarcoma viability, CellTiter-Glo ATP luminescence, 48 h; series mostly up to 46 µM
Inconclusive results are not listed. Calls of active or inactive are those of the source. Calls come from the whole dose curve; as a rule, active = well fitted cell-killing curve with a large enough effect; inconclusive = small, poorly fitted or top-dose-only effect; inactive = no such curve, though single readings can be large or run the other way.
In this exercise, the only acceptable responses are active, inactive

{"columns": ["molecule", "labelValue"],
 "data": [
  ["CCCCCCCCCCCCOCCO", "inactive"],
  ["Nc1cc(-c2ccncc2)c[nH]c1=O", "inactive"],
  ["O=C(Nc1ccc(C(=O)O)c(O)c1)c1ccccc1", "inactive"],
  ["Cc1c(Nc2ncccc2C(=O)O)cccc1C(F)(F)F", "inactive"],
  ["Oc1c(Br)cc(Br)c2cccnc12", "active"],
  ["C=CCCCCCCCCC(=O)O", "inactive"],
  ["CCC1C(=O)OCC1Cc1cncn1C (configuration not stated)", "inactive"],
  ["O=C(O)Cc1ccc2c(c1)C(=O)c1ccccc1CO2", "inactive"],
  ["O=C(CCN1CCN(CCO)CC1)N1c2ccccc2Sc2ccc(C(F)(F)F)cc21", "inactive"],
  ["Cc1ccc(O)c(-n2nc3ccccc3n2)c1", "inactive"]
]}

Input: Write down the call the test reported for this molecule. Item: "CCCCCCCCCCCCCCCCCC(=O)O"
Output: inactive

Input: Hi team, can someone confirm the assay call for "CCCSc1ccc2nc(NC(=O)OC)[nH]c2c1" ?
Output: active

###

- target: Calcium and integrin-binding protein 1 (Homo sapiens)
- method: Validation qHTS for Identification of Calcium Integrin Binding protein 1 (CIB1) Competitor (AID 1508618)
- testSettings: CIB1-GST / FITC-alphaIIb peptide fluorescence polarization; series mostly up to 114 µM
Results filed as inconclusive are left out. Calls of active or inactive are those of the source. Calls come from the whole dose curve; as a rule, active = well fitted curve in the direction sought with a large enough effect; inconclusive = small, poorly fitted or top-dose-only effect, or another doubt; inactive = no such curve, though single readings can be large or run the other way.
reportedEndpoint: outcome

Recorded outcome, per entry:
{"columns": ["molecule", "measValue"],
 "data": [
  ["Brc1cc2c(cc1[C@H]1Nc3ccccc3[C@H]3C=CC[C@H]31)OCO2", "inactive"],
  ["N#C/C(=C\\c1ccc(-c2cc(Cl)ccc2Cl)o1)C(=O)Nc1cccc2ncccc12", "inactive"],
  ["Cc1cc(NC(=O)Nc2ccc3c(ccn3C)c2)sn1", "inactive"],
  ["CN(C)c1nc(N)c(C(=O)N=C(N)N)nc1Cl", "inactive"],
  ["CSc1ccccc1N1CCN(CCCCCC(=O)NC2CCCc3ccccc32)CC1 (configuration not stated)", "inactive"]
]}

Input: Reported outcome for "COc1ccc(NC(=O)/C=C/c2ccc(Cl)cc2)cc1" : what is it?
Output: inactive

Input: Any idea what outcome was measured for "O=Nc1ccc2oc(=O)ccc2c1" ?
Output: inactive

Input: Tell me the measured outcome of "O=C(O)CC[C@@H](C(=O)O)N1C(=O)c2ccccc2C1=O" , please.
Output: inactive

Input: Reported outcome, molecule "Fc1cccc(/C=N/N=C/c2cccc(F)c2)c1" : ____
Output: inactive

Input: outcome lookup needed for "Cn1cc(C2=C(c3ccc(Cl)cc3Cl)C(=O)NC2=O)c2ccccc21" , thanks.
Output: inactive

Input: I am curious: what outcome value has been reported for "COCCOc1cc2ncnc(Cl)c2cc1OCCOC" ?
Output: inactive

Input: Look at this molecule and give its reported outcome. "O=C(Nc1ccncc1)c1cc([N+](=O)[O-])ccc1Cl"
Output: inactive
